Test system: cholesterol biosynthesis in HEP-G2 cells
Experiment: Inhibition of cholesterol biosynthesis in cell cultures of HEP-G2 cells
Assay type: cell-based
Details: Homo sapiens, HepG2, 14C-acetate precursor, read-out: IC50, concentration which brings about 50% inhibition of cholesterol biosynthesis
valueType: pIC50
Friendly reminder that pIC50 comes from taking -log10 of the concentration in mol/L.

{"molecule": "CC(C)c1nnc(-c2ccc(F)cc2)c(-c2ccc(F)cc2)c1/C=C/[C@@H](O)C[C@@H](O)CC(=O)O (relative stereo) [Example 13a]", "valueObserved": 7.30}

Let us move to another entry and its pIC50.
Enquiry: Enter reported pIC50 observed with cholesterol biosynthesis in HEP-G2 cells for CC(C)c1nnc(-c2ccc(F)cc2)c(-c2ccc(F)cc2)c1/C=C/[C@@H](O)C[C@@H](O)CC(=O)O [Example 19a]
Return: 7.60

Ref: patent US4946841A
